Just for reference, patent US5167949A is where these values come from.

# Tested on: passive cutaneous anaphylaxis
# test protocol: passive cutaneous anaphylaxis (PCA) test
# Format: in vivo
# run parameters: Rattus norvegicus; rats, oral, 10 min before antigen; dose decreasing by 50% the skin area occupied by the dye
quantity name: ED50
Give your result as the value with the unit written after it.

Requested field: ED50. Item: CCOCc1nc2nccnc2c(=O)[nH]1
24 mg/kg

Quick one: ED50 for COCc1nc2nccnc2c(=O)[nH]1 ?
33 mg/kg

Need ED50, item CCCOCc1nc2nccnc2c(=O)[nH]1
25 mg/kg

Any idea what ED50 was measured for O=c1[nH]c(COCc2ccccc2)nc2nccnc12 ?
48 mg/kg

* * *

# System: passive cutaneous anaphylaxis
# test protocol: passive cutaneous anaphylaxis (PCA) test
# Type: in vivo
# run parameters: Rattus norvegicus, ip; rats, intraperitoneal, 5 min before antigen; dose decreasing by 50% the skin area occupied by the dye
quantity name: ED50 (mg/kg)
Use mg/kg as the unit, but write only the number.

Would you please look over these solved cases?
[[record]]
smiles_entry = "CCOCc1nc2nc(O)cnc2c(=O)[nH]1"
quantity_name = "ED50"
endpoint_result = 21

[[record]]
smiles_entry = "O=c1[nH]c(COCc2ccccc2)nc2nccnc12"
quantity_name = "ED50"
endpoint_result = 10

[[record]]
smiles_entry = "CCOCc1nc2nccnc2c(=O)[nH]1"
quantity_name = "ED50"
endpoint_result = 7


Could you tell me which ED50 is on file for O=c1[nH]c(COc2ccccc2)nc2nccnc12 ?
39
